Molecular target: recombinant eIF4E (Homo sapiens (Human), UniProt P06730)
Sequence (P06730 whole entry): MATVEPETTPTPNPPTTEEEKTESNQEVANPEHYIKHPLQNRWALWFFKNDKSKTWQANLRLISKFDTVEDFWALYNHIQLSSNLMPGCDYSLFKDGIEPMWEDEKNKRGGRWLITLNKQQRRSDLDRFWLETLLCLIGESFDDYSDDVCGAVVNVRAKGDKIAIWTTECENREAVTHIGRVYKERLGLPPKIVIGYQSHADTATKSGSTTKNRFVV
Test: Fluorescence polarization competition assay for eIF4E binding potency
Settings: inhibition of eIF4E/EDA-m7GDP-ATTO-550 binding by 50%; Table 4B calculated values; read-out: IC50
Labels assigned by IC50 range: group A = under 9 nM, group B = from 9 nM up to 20 nM, group C = 20 nM and over

In [3]: df
Out[3]:
                                    molecule      cat
 0  COc1cc(F)c(C(=O)O)cc1-c1cc(Cl)ccc1OCCn1cnc2cnc(C#N)cc2c1=O  group C
 1  Cc1cc(-c2cc(Cl)ccc2OCCn2c(C)nc3cc(C(F)(F)F)c(-c4ccc(C)c(C)n4)c(C#N)c3c2=O)c2scc(C(=O)O)c2n1  group A
 2  Cc1nc2cnc(N(C)C3CCN(C4(C)COC4)CC3)c(C#N)c2c(=O)n1CC#Cc1ccc(Cl)cc1-c1ccnc2c(C(=O)O)csc12  group B
 3  Cc1cc(-c2cc(Cl)ccc2OCCn2c(C)nc3cc(C(F)(F)F)c(-c4cnn(C)c4C)c(C#N)c3c2=O)c2scc(C(=O)O)c2n1  group A
 4  C#Cc1sc2c(-c3cc(Cl)ccc3OCCn3c(C)nc4cc(C(F)(F)F)cc(C#N)c4c3=O)ccnc2c1C(=O)O  group C
 5  Cc1cc(-c2cc(Cl)ccc2OCCn2c(C)nc3cc(C(F)(F)F)c(-c4ccncc4)nc3c2=O)c2scc(C(=O)O)c2n1  group C
 6  Cc1cc(-c2cc(Cl)ccc2OCCn2c(C)nc3cc(C(F)(F)F)c(N4CCNCC4)c(C#N)c3c2=O)c2sc(C)c(C(=O)O)c2n1  group A
 7  Cc1cccc(-c2c(Cl)cc3nc(C)n(CCOc4ccc(Cl)cc4-c4cc(C)nc5c(C(=O)O)c(C)sc45)c(=O)c3c2C#N)n1  group C
 8  Cc1cc(-c2cc(Cl)ccc2OCCn2c(C)nc3c(C(F)(F)F)cc(N4CCN(C)CC4)nc3c2=O)c2scc(C(=O)O)c2n1  group A
 9  Cc1nc2c(N3CCNCC(F)(F)C3)ncc(C#N)c2c(=O)n1CCOc1ccc(Cl)cc1-c1ccnc2c(C(=O)O)csc12  group B
10  Cc1cc(-c2cc(Cl)ccc2OCCn2c(C)nc3cc(C(F)(F)F)c(N4CC(O)C4)nc3c2=O)c2scc(C(=O)O)c2n1  group A
11  Cc1nc2c(C(F)F)ccc(C#N)c2c(=O)n1CCOc1ccc(Cl)cc1-c1ccnc2c(C(=O)O)csc12  group C
12  Cc1nc2cnc(C3=CCN(C)CC3)c(C#N)c2c(=O)n1CCOc1ccc(Cl)cc1-c1ccnc2c(C(=O)O)csc12  group C
13  Cc1nc2ccc(S(=O)(=O)N3CCC(F)(F)CC3)c(C#N)c2c(=O)n1CCOc1ccc(Cl)cc1-c1ccnc2c(C(=O)O)csc12  group B
14  COc1c(CN(C)C)cc2nc(C)n(CCOc3ccc(Cl)cc3-c3cc(C)nc4c(C(=O)O)csc34)c(=O)c2c1C#N  group A
15  Cc1cc(-c2cc(Cl)ccc2OCCn2c(C)nc3c(C)nc(-c4cc(F)ccc4F)c(C#N)c3c2=O)c2scc(C(=O)O)c2n1  group C
16  CNc1c(Cl)cc2nc(C)n(CCOc3ccc(Cl)cc3-c3cc(C)nc4c(C(=O)O)csc34)c(=O)c2c1C#N  group B
17  Cc1nc2c(F)cc(F)c(C#N)c2c(=O)n1CCOc1ccc(Cl)cc1-c1ccnc2c(C(=O)O)csc12  group A
18  Cc1cc(-c2cc(Cl)ccc2OCCn2c(C)nc3cnc(NCC(F)F)c(C#N)c3c2=O)c2scc(C(=O)O)c2n1  group C
19  Cc1cc(-c2cc(Cl)ccc2OCCn2c(C)nc3cnc(NN(C)C)c(C#N)c3c2=O)c2scc(C(=O)O)c2n1  group B
20  O=C(O)c1cccc(-c2cc(Cl)ccc2OCCn2ccc3ccccc3c2=O)c1  group C
21  Cc1c(C(F)(F)F)cc2nc(C)n(CCOc3ccc(Cl)cc3-c3ccnc4c(C(=O)O)csc34)c(=O)c2c1C#N  group B
22  CC(COc1ccc(Cl)cc1-c1cccc(C(=O)O)c1)n1cnc2cnc(C#N)cc2c1=O (centres unmarked)  group C

###

Target: recombinant eIF4E (Homo sapiens (Human))
Test: Fluorescence polarization competition assay for eIF4E binding potency
Settings: fluorescence polarization competition, 75 nM recombinant eIF4E, 20 nM EDA-m7GDP-ATTO-550; IC50 class; read-out: elF4E FP
pIC50: −log10 of the molar value.
The compounds listed here are annotated with their pIC50.
reported.metric: pIC50

>>> print(df.to_string())
                                    compound        result
 0  Cc1cc(-c2cc(Cl)ccc2OCCn2c(C)nc3cc(C(F)(F)F)c(-c4cnc(C)nc4C)c(C#N)c3c2=O)c2scc(C(=O)O)c2n1        > 7.30
 1  Cc1cc(C#N)c2c(=O)n(CCOc3ccc(Cl)cc3-c3ccnc4c(C(=O)O)csc34)c(C)nc2c1  6.00 to 7.30
 2  Cc1nc2c(N(C)C3CCN(C)C(C(F)F)C3)ncc(C#N)c2c(=O)n1CCOc1ccc(Cl)cc1-c1ccnc2c(C(=O)O)csc12 (centres unmarked)        > 7.30
 3  Cc1cc(-c2cc(Cl)ccc2OCCn2c(C)nc3c(C)nc(-c4ccc(Cl)cc4)c(C#N)c3c2=O)c2scc(C(=O)O)c2n1        > 7.30
 4  Cc1cc(-c2cc(Cl)ccc2OCCn2c(C)nc3cnc(C4(C)CC4)c(C#N)c3c2=O)c2scc(C(=O)O)c2n1        > 7.30
 5  Cc1cc(-c2cc(Cl)ccc2OCCn2c(C)nc3c(F)cc(C(F)F)c(C#N)c3c2=O)c2scc(C(=O)NS(=O)(=O)C(F)(F)F)c2n1        > 7.30
 6  N#Cc1cc2c(=O)n(CCOc3ccc(C(F)F)cc3-c3cccc(C(=O)O)c3)cnc2cn1        < 6.00
 7  Cc1cc(-c2cc(Cl)ccc2OCCn2c(C)nc3cc(C(F)(F)F)c(C4CC4)nc3c2=O)c2scc(C(=O)O)c2n1        > 7.30
 8  Cc1nc2cc(C(F)(F)F)cc(C#N)c2c(=O)n1CCOc1ccc(Cl)cc1-c1ccnc2c(C(=O)O)csc12 [compound 61]        > 7.30
 9  COc1cc(-c2cc(Cl)ccc2OCCn2cnc3cnc(C#N)cc3c2=O)cc(C(=O)O)c1OC        < 6.00
10  Cc1cc(-c2cc(Cl)ccc2OCCn2c(C)nc3c(C)nc(-c4cc(F)ccc4C)c(C#N)c3c2=O)c2scc(C(=O)O)c2n1        > 7.30
11  N#Cc1cccc2ncn(CCOc3ccc(Cl)cc3-c3cccc(C(=O)O)c3)c(=O)c12  6.00 to 7.30
12  Cc1cc(-c2cc(Cl)ccc2OCCn2c(C)nc3cc(Cl)c(N(C)C(C)(C)C)c(C#N)c3c2=O)c2scc(C(=O)O)c2n1        > 7.30
13  Cc1cnc(C)c(-c2c(C(F)(F)F)cc3nc(C)n(CCOc4ccc(Cl)cc4-c4cc(C)nc5c(C(=O)O)csc45)c(=O)c3c2C#N)c1        > 7.30

###

Target: recombinant eIF4E (Homo sapiens (Human), UniProt P06730)
Assay: Fluorescence polarization competition assay for eIF4E binding potency
Settings: inhibition of eIF4E/EDA-m7GDP-ATTO-550 binding; calculated IC50 values, Table 4B; read-out: IC50
reported.metric: IC50 (nM)

In [3]: df
Out[3]:
                                query_smiles  reported_metric  recorded_number
 0  Cc1nc2cc(C(F)(F)F)c(N3CCN(C)CC3)c(C#N)c2c(=O)n1CCOc1ccc(Cl)cc1-c1ccnc2c(C#N)csc12             IC50             26.5
 1  Cc1nc2cnc(N(C)C3CCN(CC(F)(F)F)CC3)c(C#N)c2c(=O)n1CC#Cc1ccc(Cl)cc1-c1ccnc2c(C(=O)NS(=O)(=O)Cc3ccccn3)csc12             IC50             7.22
 2  Cc1nc2cnc(N3CCN(CC(F)F)CC3)c(C#N)c2c(=O)n1CCOc1ccc(Cl)cc1-c1ccnc2c(C(=O)O)csc12             IC50             36.6
 3  Cc1nc2cnc(N(C)C3CCN(C4CC(F)(F)C4)CC3)c(C#N)c2c(=O)n1CC#Cc1ccc(Cl)cc1-c1ccnc2c(C(=O)NS(=O)(=O)C3CCC3)csc12             IC50             12.9
 4  Cc1nc2cnc(N3CCN(CC(F)F)CC3)c(C#N)c2c(=O)n1CC#Cc1ccc(Cl)cc1-c1ccnc2c(C(=O)NS(C)(=O)=O)csc12             IC50             25.4
 5  Cc1nc2cnc(N(C)C3CCN([C@H]4C[C@H](F)C4)CC3)c(C#N)c2c(=O)n1CC#Cc1ccc(Cl)cc1-c1ccnc2c(C(=O)NS(C)(=O)=O)csc12             IC50             3.88
 6  Cc1nc2cnc(C3=C(C(C)(C)C)CN(C)C3)c(C#N)c2c(=O)n1CCOc1ccc(Cl)cc1-c1ccnc2c(C(=O)O)csc12             IC50             34.5
 7  Cc1nc2cnc(N3CCN(C4(C(F)F)CC4)CC3)c(C#N)c2c(=O)n1CC#Cc1ccc(Cl)cc1-c1ccnc2c(C(=O)O)csc12             IC50             14.3
 8  N#Cc1cncc2nc(C(F)F)n(CCOc3ccc(Cl)cc3-c3cccc(C(=O)O)c3)c(=O)c12             IC50             82.6
 9  Cc1nc2cnc(N(C)C3CCN([C@H]4C[C@H](OC(F)F)C4)CC3)c(C#N)c2c(=O)n1CC#Cc1ccc(Cl)cc1-c1ccnc2c(C(=O)NS(=O)(=O)C3COC3)csc12             IC50               25
10  Cc1nc2cnc(N(C)C3CCN(CC(F)(F)F)CC3)c(C#N)c2c(=O)n1CC#Cc1ccc(Cl)cc1-c1ccnc2c(C(=O)NS(C)(=O)=O)csc12             IC50             20.5
11  O=C(O)c1cccc(-c2cc(Cl)ccc2OCCn2cnc3c(C(F)(F)F)nccc3c2=O)c1             IC50              412
